Could you please report measured IC50 at 48 h for the items listed next?
assay method text: Antiproliferative activity against rat H9c2 cells assessed as inhibition of cell growth measured after 48 hrs by CCK-8 method
Format: toxicity, cell-based
One number for each entry, in µM.

Please review the entries below; each comes with its answer.
Cc1ncc([N+](=O)[O-])n1CCOC(=O)NC(Nc1nc(Cl)cc(Nc2ccccc2)n1)C(Cl)(Cl)Cl (centres undefined) | 15.1
Cc1ncc([N+](=O)[O-])n1CCOC(=O)NC(Nc1nc(Cl)cc(Nc2ccc(C(F)(F)F)cc2)n1)C(Cl)(Cl)Cl (centres undefined) | 22.5
Cc1ncc([N+](=O)[O-])n1CCOC(=O)NC(Nc1ncccn1)C(Cl)(Cl)Cl (centres undefined) | 252

Now for a further compound.
QUERY: Provide only the value of recorded IC50 at 48 h for O=C(NC(Nc1nc(Cl)cc(Nc2ccc(C(F)(F)F)cc2)n1)C(Cl)(Cl)Cl)OCCNC(=O)c1cnc(C(F)(F)F)s1 (centres undefined)
RESULT: 19.4

---

assay method text: Antiproliferative activity against human MCF-10A cells assessed as inhibition of cell growth measured after 48 hrs by CCK-8 method
Format: toxicity, cell-based
attribute measured: IC50 at 48 h
Report as: number unit

Here is how some compounds turned out for IC50 at 48 h.
Cc1ncc([N+](=O)[O-])n1CCOC(=O)NC(Nc1ncccn1)C(Cl)(Cl)Cl (centres undefined) | 161 µM
Cc1ncc([N+](=O)[O-])n1CCOC(=O)NC(Nc1nc(Cl)cc(Nc2ccccc2)n1)C(Cl)(Cl)Cl (centres undefined) | 22.5 µM
O=C(NC(Nc1nc(Cl)cc(Nc2ccc(C(F)(F)F)cc2)n1)C(Cl)(Cl)Cl)OCCNC(=O)c1cnc(C(F)(F)F)s1 (centres undefined) | 23.9 µM

QUERY: Give IC50 at 48 h for Cc1ncc([N+](=O)[O-])n1CCOC(=O)NC(Nc1nc(Cl)cc(Nc2ccc(C(F)(F)F)cc2)n1)C(Cl)(Cl)Cl (centres undefined)
RESULT: 3.7 µM

---

assay method text: Selectivity index, ratio of IC50 for antiproliferative activity against human MCF-10A cells to IC50 for antiproliferative activity against human MDA-MB-231 cells
Assay type: toxicity, cell-based
experimental parameters: MCF-10A cells and MDA-MB-231 cells, read-out: Ratio IC50
Could you please report measured selectivity ratio for the items listed next?
Numbers only.

Cc1ncc([N+](=O)[O-])n1CCOC(=O)NC(Nc1nc(Cl)cc(Nc2ccc(C(F)(F)F)cc2)n1)C(Cl)(Cl)Cl (configuration not stated) | 0.93

As a next step, examine the compound that follows.
QUERY: Please indicate selectivity ratio recorded for Cc1ncc([N+](=O)[O-])n1CCOC(=O)NC(Nc1ncccn1)C(Cl)(Cl)Cl (configuration not stated)
RESULT: 0.84

---

system: Cell division cycle protein 20 homolog (Homo sapiens)
Sequence (Q12834 whole entry): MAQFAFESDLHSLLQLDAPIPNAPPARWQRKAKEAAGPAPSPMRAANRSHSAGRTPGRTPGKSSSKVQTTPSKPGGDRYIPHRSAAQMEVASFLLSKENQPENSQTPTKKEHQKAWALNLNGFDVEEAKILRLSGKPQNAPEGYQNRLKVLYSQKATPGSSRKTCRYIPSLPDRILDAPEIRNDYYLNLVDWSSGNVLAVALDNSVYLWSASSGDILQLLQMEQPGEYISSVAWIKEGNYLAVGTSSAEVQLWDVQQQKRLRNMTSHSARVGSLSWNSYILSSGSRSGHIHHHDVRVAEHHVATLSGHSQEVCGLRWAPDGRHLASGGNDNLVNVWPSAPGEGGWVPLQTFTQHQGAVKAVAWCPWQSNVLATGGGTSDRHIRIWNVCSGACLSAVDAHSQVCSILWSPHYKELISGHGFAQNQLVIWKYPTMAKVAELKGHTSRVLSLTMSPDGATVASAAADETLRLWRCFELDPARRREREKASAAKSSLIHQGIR
attribute measured: pKd
One number for each entry, as −log10 of the molar value.

QUERY: Using the record for Cc1ncc([N+](=O)[O-])n1CCOC(=O)NC(Nc1ncccn1)C(Cl)(Cl)Cl (stereo unspecified) , state its measured pKd.
RESULT: 3.63

---

Consider the following molecules; for each one, report its IC50 at 48 h.
assay method text: Antiproliferative activity against human HK-2 cells assessed as inhibition of cell growth measured after 48 hrs by CCK-8 method
Format: toxicity, cell-based
Answers are plain numbers, in µM.

// known answers, use as guide
Cc1ncc([N+](=O)[O-])n1CCOC(=O)NC(Nc1ncccn1)C(Cl)(Cl)Cl (centres undefined) | 151
O=C(NC(Nc1nc(Cl)cc(Nc2ccc(C(F)(F)F)cc2)n1)C(Cl)(Cl)Cl)OCCNC(=O)c1cnc(C(F)(F)F)s1 (centres undefined) | 23.4
Cc1ncc([N+](=O)[O-])n1CCOC(=O)NC(Nc1nc(Cl)cc(Nc2ccccc2)n1)C(Cl)(Cl)Cl (centres undefined) | 18.3

Turning to the following molecule.
QUERY: Return IC50 at 48 h (reported value) for this molecule: Cc1ncc([N+](=O)[O-])n1CCOC(=O)NC(Nc1nc(Cl)cc(Nc2ccc(C(F)(F)F)cc2)n1)C(Cl)(Cl)Cl (centres undefined)
RESULT: 10.1
